Each recorded value in this set is attributed to ChEMBL document CHEMBL4138111.

# Test System: Adenosine receptor A2b (Homo sapiens)
# Protocol Text: Antagonist activity at Adenosine receptor subtype 2B in human RBC assessed as change in erythrocyte morphology at 10 uM incubated for 3 hrs with occasional gentle stirring for every 30 min measured for every 12 hrs by microscopic analysis relative to control
# Format: functional, cell-based
# Set-up: scale not given: the % may be the effect or the level left
Experimental Endpoint: Activity

Consider the following illustrative entries.
compound="CCCc1cc(O)nc(SC(C)C(=O)Nc2cc(C)no2)n1 (stereo unspecified)" experimental_endpoint=Activity value_measured="> 70%"
compound=CC(C)c1noc(OCC(=O)NCc2ccc3c(c2)OCO3)n1 experimental_endpoint=Activity value_measured="> 70%"
compound=Cc1cc(NC(=O)CNc2ccc3c(c2)OC(F)(F)O3)on1 experimental_endpoint=Activity value_measured="> 70%"
compound=CCCn1c(=O)c2[nH]c(-c3ccc(OCC(=O)Nc4ccc(C#N)cc4)cc3)nc2n(CCC)c1=O experimental_endpoint=Activity value_measured=54%
compound="O=C(CN1CCOC(Cn2cncn2)C1)Nc1cccnc1 (stereo unspecified)" experimental_endpoint=Activity value_measured="> 70%"

Q: Field request: Activity | item: CC(OC(=O)c1nccnc1N)C(=O)NCc1ccc2c(c1)OCO2 (stereo unspecified)
Result: > 70%

###

The entries below come with measured pKb values attached.
# Test System: UniProt P29275
# Sequence (whole entry): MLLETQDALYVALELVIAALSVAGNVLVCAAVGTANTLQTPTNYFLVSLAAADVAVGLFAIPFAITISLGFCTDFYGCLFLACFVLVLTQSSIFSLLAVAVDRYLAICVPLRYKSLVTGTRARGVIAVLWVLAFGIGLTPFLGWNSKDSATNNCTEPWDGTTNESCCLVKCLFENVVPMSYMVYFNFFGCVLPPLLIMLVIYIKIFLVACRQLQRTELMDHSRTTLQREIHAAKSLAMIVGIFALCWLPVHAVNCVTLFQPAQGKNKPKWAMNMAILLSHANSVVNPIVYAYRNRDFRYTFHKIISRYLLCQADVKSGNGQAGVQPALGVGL
# Protocol Text: Antagonist activity at Adenosine receptor subtype 2B in human RBC assessed as inhibition of NECA-induced-sickling effect by measuring change in erythrocyte morphology preincubated for 3 hrs with occasional gentle stirring for every 30 min followed by incubated for 2 to 12 hrs under normoxic/hypoxic condition measured for every 12 hrs by microscopic analysis
# Assay type: functional, cell-based
Form field (numeric): enter value without unit.

molecule=CCCn1c(=O)c2[nH]c(-c3ccc(OCC(=O)Nc4ccc(C#N)cc4)cc3)nc2n(CCC)c1=O test_system="UniProt P29275" value_measured=8.68
molecule="CCCc1cc(O)nc(SC(C)C(=O)Nc2cc(C)no2)n1 (stereo unspecified)" test_system="UniProt P29275" value_measured=9.45
molecule="O=C(CN1CCOC(Cn2cncn2)C1)Nc1cccnc1 (stereo unspecified)" test_system="UniProt P29275" value_measured=8.31
molecule=CC(C)c1noc(OCC(=O)NCc2ccc3c(c2)OCO3)n1 test_system="UniProt P29275" value_measured=7.99
molecule="CC(OC(=O)c1nccnc1N)C(=O)NCc1ccc2c(c1)OCO2 (stereo unspecified)" test_system="UniProt P29275" value_measured=9.54

Q: So what's the measured pKb for this one? Cc1cc(NC(=O)CNc2ccc3c(c2)OC(F)(F)O3)on1
Result: 7.38
